Where these numbers come from: patent US20260209345A1

study target: T1, recombinant LILRB2 ECD (human, UniProt Q8N423 22-460)
T1 construct: also called biotinylated LILRB2 ECD
T1 sequence (Q8N423 22-460 limits assumed): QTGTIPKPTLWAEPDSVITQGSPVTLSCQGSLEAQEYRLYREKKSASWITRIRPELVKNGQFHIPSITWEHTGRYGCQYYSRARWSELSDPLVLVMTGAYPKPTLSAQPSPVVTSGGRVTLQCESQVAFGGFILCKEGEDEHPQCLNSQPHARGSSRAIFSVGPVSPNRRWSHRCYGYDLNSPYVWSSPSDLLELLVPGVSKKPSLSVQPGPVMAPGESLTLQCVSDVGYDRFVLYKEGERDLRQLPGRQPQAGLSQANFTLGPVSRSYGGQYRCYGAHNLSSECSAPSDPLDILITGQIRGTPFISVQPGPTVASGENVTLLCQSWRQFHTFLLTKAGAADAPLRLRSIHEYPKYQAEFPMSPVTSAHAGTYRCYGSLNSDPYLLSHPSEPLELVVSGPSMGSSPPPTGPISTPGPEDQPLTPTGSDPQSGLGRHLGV
assay remarks: ELISA, LILRB2 ECD binding to HLA-G-Fc
value type: IC50 (nM)
All answers are understood in nM, so give the number only.

A selection of reference data follows.
# binder, unit of measurement, obs value
measured = [
    ("A-013 (antibody, V domains shown, tested as IgG) VH: QVQLVQSGAEVKKPGSSVKVSCKASGGTFRQEAFSWVRQAPGQGLEWMGSIIPIFYSSNYAQKFQGRVTITADESTSTAYMELSSLRSEDTAVYYCAKDLGTYSSGWPYYYGMDVWGQGTTVTVSS VL: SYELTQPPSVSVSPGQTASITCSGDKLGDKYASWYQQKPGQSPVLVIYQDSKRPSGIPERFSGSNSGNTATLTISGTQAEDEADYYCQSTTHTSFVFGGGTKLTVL", "nM", 4.6),
    ("A-031 (antibody, V domains shown, tested as IgG) VH: QVQLVQSGAEVKKPGSSVKVSCKASGYTFTKTAMSWVRQAPGQGLEWMGGIIPSYYTAVYAQKFQGRVTITADESTSTAYMELSSLRSEDTAVYYCAKGPPVGSSSWYTDWYFDLWGRGTLVTVSS VL: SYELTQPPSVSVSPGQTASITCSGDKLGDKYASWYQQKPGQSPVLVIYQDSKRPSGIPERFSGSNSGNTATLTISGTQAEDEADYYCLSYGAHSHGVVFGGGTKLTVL", "nM", 4.2),
    ("A-018 (antibody, V domains shown, tested as IgG) VH: QVQLVQSGAEVKKPGSSVKVSCKASGGTFSTSAISWVRQAPGQGLEWMGGIIPIFYTANYAQKFQGRVTITADESTSTAYMELSSLRSEDTAVYYCAKDLGTYSSGWPYYYGMDVWGQGTTVTVSS VL: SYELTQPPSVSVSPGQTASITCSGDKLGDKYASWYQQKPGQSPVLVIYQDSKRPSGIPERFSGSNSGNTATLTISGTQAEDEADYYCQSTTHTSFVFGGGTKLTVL", "nM", 5.1),
    ("A-033 (antibody, V domains shown, tested as IgG) VH: QVQLVQSGAEVKKPGSSVKVSCKASGYTFSSHAMSWVRQAPGQGLEWMGGIIPTFKTAVFAQKFQGRVTITADESTSTAYMELSSLRSEDTAVYYCAKGPPVGSSSWYTDWYFDLWGRGTLVTVSS VL: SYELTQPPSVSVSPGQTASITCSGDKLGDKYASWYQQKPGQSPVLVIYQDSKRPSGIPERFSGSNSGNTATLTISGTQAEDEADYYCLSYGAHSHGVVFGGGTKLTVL", "nM", 8.6),
    ("A-025 (antibody, V domains shown, tested as IgG) VH: QVQLVQSGAEVKKPGSSVKVSCKASGYTFSKSAMSWVRQAPGQGLEWMGGIVPKFHTSVYAQKFQGRVTITADESTSTAYMELSSLRSEDTAVYYCAKGPPVGSSSWYTDWYFDLWGRGTLVTVSS VL: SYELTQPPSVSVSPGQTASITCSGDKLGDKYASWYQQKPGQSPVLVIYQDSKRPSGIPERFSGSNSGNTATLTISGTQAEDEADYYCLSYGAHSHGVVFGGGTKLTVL", "nM", 4.3),
]

[in] Given the binder A-037 (antibody, V domains shown, tested as IgG) VH: QVQLVQSGAEVKKPGSSVKVSCKASGGTFSSYAISWVRQAPGQGLEWMGGIIPIFGTANYAQKFQGRVTITADESTSTAYMELSSLRSEDTAVYYCARVHLYYHFPASYFDYWGQGTLVTVSS VL: SYELTQPPSVSVSPGQTASITCSGDKLGDKYASWYQQKPGQSPVLVIYQDSKRPSGIPERFSGSNSGNTATLTISGTQAEDEADYYCLASLGTGGVYVFGGGTKLTVL , what is its reported IC50?
[out] 3.5

[in] Given the binder A-008 (antibody, V domains shown, tested as IgG) VH: QVQLVQSGAEVKKPGSSVKVSCKASGGTFAESAILWVRQAPGQGLEWMGGIVPSFYSANYAQKFQGRVTITADESTSTAYMELSSLRSEDTAVYYCAKDLGTYSSGWPYYYGMDVWGQGTTVTVSS VL: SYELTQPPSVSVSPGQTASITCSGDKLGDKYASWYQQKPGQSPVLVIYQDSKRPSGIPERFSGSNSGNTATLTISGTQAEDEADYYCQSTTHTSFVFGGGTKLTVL , what is its reported IC50?
[out] 4

[in] Given the binder Ref047 [MK-4830, LILRB2 specific] (antibody, from another filing, V domains shown) VH: EVQLQQWGAGLLKPSETLSLTCAVYGGSFSGYYWSWIRQPPGKGLEWIGEINHAGSTNYNPSLKSRVTISVDTSKNQFSLKLSSVTAADTAVYYCARLPTRWVTTRYFDLWGRGTLVTVSS VL: ESVLTQPPSVSGAPGQRVTISCTGSSSNIGAGYDVHWYQQLPGTAPKLLIYGDSNRPSGVPDRFSVSKSGASASLAITGLQAEDEADYYCQSFDNSLSAYVFGGGTQLTVL , what is its reported IC50?
[out] 3.1

[in] Given the binder A-034 (antibody, V domains shown, tested as IgG) VH: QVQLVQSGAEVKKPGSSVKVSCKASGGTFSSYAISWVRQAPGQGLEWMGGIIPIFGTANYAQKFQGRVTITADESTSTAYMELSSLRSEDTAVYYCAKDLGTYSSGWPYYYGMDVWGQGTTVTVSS VL: SYELTQPPSVSVSPGQTASITCSGDKLGDKYASWYQQKPGQSPVLVIYQDSKRPSGIPERFSGSNSGNTATLTISGTQAEDEADYYCQLYGHTITVFGGGTKLTVL , what is its reported IC50?
[out] 5.6

[in] Given the binder A-001 (antibody, V domains shown, tested as IgG; also called parental antibody A-001) VH: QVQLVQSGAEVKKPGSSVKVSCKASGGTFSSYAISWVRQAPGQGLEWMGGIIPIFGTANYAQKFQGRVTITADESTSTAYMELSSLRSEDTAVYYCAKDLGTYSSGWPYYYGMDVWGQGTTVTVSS VL: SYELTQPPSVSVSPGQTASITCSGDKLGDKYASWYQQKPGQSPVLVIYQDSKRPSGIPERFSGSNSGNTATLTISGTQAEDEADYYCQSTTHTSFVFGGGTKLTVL , what is its reported IC50?
[out] 3.1
